Measured Inhibition, listed per entry.
# Tested on: Plasmodium falciparum
# assay.summary: GSK_TCMDC: Inhibition of Plasmodium falciparum Dd2 in whole red blood cells, using parasite LDH activity as an index of growth. Test compounds present at 2uM
# Assay type: functional
Dear colleague, please return just the value in %, with no unit written.

Before answering, review these 4 worked examples.
| compound | recorded.number |
| --- | --- |
| O=C(/C=C/c1ccc(Cl)cc1)NCCCCCN1CCCC(C(=O)Nc2cccc(Cl)c2)C1 (stereo unspecified) | 4 |
| Cc1cnc(CN(Cc2ccc(-c3ccc(CNCCc4ccc(S(C)(=O)=O)cc4)cn3)cc2)C(=O)c2nn(-c3ccccc3)nc2C)cn1.O=C(O)C(F)(F)F | 21 |
| Cn1cccc1CCNCc1ccc(-c2cccc(-c3nc4ccccc4[nH]3)c2)cc1.O=C(O)C(F)(F)F | 66 |
| O=C(NCCCCCN1CCC(c2c[nH]c3ccccc23)CC1)Nc1cccc(Cl)c1 | 0 |

Data request: Give the reported value of Inhibition for this record: COc1cccc2cc(C(=O)N[C@@H](CC(C)C)C(=O)N[C@H](C=NN3CC(=O)NC3=O)CC(C)C)oc12
Data returned: 64

Data request: Give the reported value of Inhibition for this record: CC(C)(C)c1ccc(N2C(N)=NC(N)=NC2(C)C)cc1.Cl
Data returned: 0
